- Experiment summary: NCI Yeast Anticancer Drug Screen. Data for the cln2 rad14 strain (AID 165);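 note: 0% = growth equal to vehicle treated cultures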
- Run parameters: S. cerevisiae cln2 rad14 strain, at 5.0 µM (retest, dose inferred, filed as 0.5), hits give high values
The panel holds about 79,000 compounds, 15% with a hit somewhere; the sample as a whole holds those more often.
Endpoint label: growth inhibition (%)

In [3]: df
Out[3]:
                                    compound  recorded_value
 0  COc1ccc(C2c3cc4c(cc3OC(N3CCCC3)C2C)OCO4)c(OC)c1 (configuration not stated)              -4
 1                  O=Cc1ccc([N+](=O)[O-])o1              -1
 2    CCS(=O)(=O)c1ccc(NC(=O)OC2CCCCCCC2)cc1             -50
 3          CCOc1nc(N)nc(C)c1N=Nc1ccc(Br)cc1               4
 4  CCOC(=O)Cc1[nH]c(C(=O)c2ccccc2)cc1C(=O)c1ccccc1               7
 5              Nc1cc(=O)[nH]c(=S)[nH]1.[Pd]               0
 6  CC[C@@]1(OP(=O)(O)O)C(=O)OCc2c1cc1n(c2=O)Cc2cc3ccccc3nc2-1             -11
 7  Cc1ccc(S(=O)(=O)CC2COC(CS(=O)(=O)c3ccc(C)cc3)CO2)cc1 (configuration not stated)               8
 8  COc1cc2c3c(c4ccc(OC)c(OC)c4c2cc1OC)CN1CCC[C@@H]1C3               1
 9  CN(Cc1ccccc1)CC(O)c1cc(-c2ccc(Cl)cc2)nc2ccccc12 (configuration not stated)               1
10  CCOC(=O)C1=NNC(C(=O)c2ccccc2)C1c1ccccc1 (configuration not stated)               4
11         CCc1cc2c(c3c1C(=O)CC3)C(C)(C)CCC2               2
12  CCC(C)OC(=O)c1cccc(C)c1 (configuration not stated)               1
13  CCCC(Sc1ccccc1)c1ccccc1NC(C)=O (configuration not stated)               6
14  COC(CC[P+](c1ccccc1)(c1ccccc1)c1ccccc1)(C(=O)c1ccccc1)c1ccccc1 (configuration not stated)              90
15  CC1(c2ccc(Cl)cc2)OC(=O)C(=Cc2ccc([N+](=O)[O-])s2)C(=O)O1 (configuration not stated)              44
16  N#CNc1nc(N)c(-c2ccc(Cl)cc2)c(C(=O)Nc2ccc(Cl)c(Cl)c2)n1              -4

###

- Experiment summary: NCI Yeast Anticancer Drug Screen. Data for the rad50 strain (AID 155);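 note: 0% = growth of vehicle-only cultures of the same strain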
- Run parameters: S. cerevisiae rad50 strain growth inhibition; at 50.0 µM (retest, dose inferred, filed as 5.0)
This is part of a sample that, as a whole, favours compounds with a hit. Of some 79,000 tested, about 15% had one in any assay. The source made the active and inactive calls. Rule as the data show it: active = growth inhibition above about 70%; inactive = the rest.
Outcomes: active, inactive

Compound	Classification
CCNc1cc2c3c(c1)CCCN3CCC2	inactive
CC(NNC(=S)NCc1ccccc1)c1cc2ccccc2cn1 (stereo not drawn)	active
CC1CCN(CC(=O)N2c3ccccc3Sc3cc4ccccc4cc32)CC1	inactive
C1=NC2c3ccccc3Cc3cccc1c32 (stereo not drawn)	active
COC(=O)C1C(O)C(C)C(=O)C(C)/C=C\C=C(C)C(=O)Nc2c(C)c(OC(C)=O)c3c(c2O)C(=O)C(C)=C2OCOC(=C23)C(C)=CC(C)(O)C(O)C(C)C1O (stereo not drawn)	inactive
Cc1c(C)c(C)c(C(=O)c2ccccc2C(=O)NCCSC(C)(C)C)c(C)c1C	inactive
NC(=O)c1cccn1Cc1ccccc1SSc1ccccc1Cn1cccc1C(N)=O	active
Nc1c(-c2ccc(Cl)cc2)[n+]([O-])c2ccccc2[n+]1[O-]	inactive
CCCCCN(CCCCC)C(=S)Nc1ccccc1	inactive
CC1=CC2N(C=C1)C(c1ccccc1)=NON2c1cc(C)ccn1 (stereo not drawn)	inactive
COC1=C(NC(C)=O)C(=O)c2nc(-c3nc(C(=O)O)c(C)c(-c4ccc(OC)c(OC)c4O)c3N)ccc2C1=O	active
CN1C/C(=C\c2ccccc2)C(=O)/C(=C/c2ccccc2)C1	active
Cc1cccc(Cl)c1NC(=O)/C=C/c1ccccc1	inactive

###

Listed here are compounds together with their documented growth inhibition.
- Experiment summary: NCI Yeast Anticancer Drug Screen. Data for the mec2-1 strain (AID 157)
- Run parameters: S. cerevisiae mec2-1 strain, at 50.0 µM (retest, dose inferred, filed as 5.0), hits give high values
The panel holds about 79,000 compounds, 15% with a hit somewhere; the sample as a whole holds those more often.
Endpoint label: growth inhibition (%)

>>> df
                                   compound     endpoint_label  recorded_value
0  CNCCN[C@@H]1c2cc3c(cc2[C@@H](c2cc(OC)c(O)c(OC)c2)[C@H]2C(=O)OC[C@@H]21)OCO3  growth inhibition              91
1       O=c1c2c3ccccc3[nH]c2c2cccc3c2n1CCC3  growth inhibition              88
2            Cc1cnc2c(c1C)C(=O)c1ccccc1C2=O  growth inhibition              88
3  O=[N+]([O-])c1ccc2c(c1)[n+]([O-])c1[nH]c3ccccc3c1[n+]2[O-] (tested in a mixture with another compound)  growth inhibition              89
4             Cc1ccc(N=C(N)Nc2ccc(C)cn2)nc1  growth inhibition              68
5  CC(=O)c1c(O)c(C)c(O)c2c1OC1=CC(=O)c3c(C)noc3C12C (stereo not given)  growth inhibition               7
6  CCC1=C(c2ccc(OC(C)=O)cc2)Cc2cc(OC(C)=O)ccc21  growth inhibition              67
7             CCCCCCCCCCCCCCCCCC(=O)OCCOCCO  growth inhibition             -46
8  O=C(CC(O)(C(F)(F)F)C(F)(F)F)C(c1ccccc1)C(O)(C(F)(F)F)C(F)(F)F (stereo not given)  growth inhibition              79
9  CC(N1CCOCC1)C(O)(c1ccccc1)c1ccccn1 (stereo not given)  growth inhibition             -15

###

# growth inhibition per record follows
- Experiment summary: NCI Yeast Anticancer Drug Screen. Data for the bub3 strain (AID 167)
- Run parameters: S. cerevisiae bub3 mutant strain, at 50.0 µM (retest, dose inferred, filed as 5.0), hits give high values
About 79,000 compounds went through this panel and 15% of them were active in at least one assay; those are over-represented in the sample as a whole. Where a SMILES comes first, the peptide text is derived from it. The star is where a group is joined. Cbz = O=C(OCc1ccccc1)*; CH2Cl = ClC*
Endpoint label: growth inhibition (%)

In [3]: df
Out[3]:
                                    compound     endpoint_label  unit_label  recorded_value
 0         COc1ccc(/C=C2\CCCc3ccccc3C2=O)cc1  growth inhibition           %              90
 1  O=S(=O)(CCNCCCCC1CCCCC1)SCCNCCCCC1CCCCC1  growth inhibition           %              99
 2  O=C(c1ccc(Cl)cc1)C1OC12C(=O)Nc1c(Cl)cc(Cl)cc12 (stereo unspecified)  growth inhibition           %              99
 3          CCCCCCCCN(CCCCCCCC)Cc1ccc(Br)cc1  growth inhibition           %              99
 4  C/C(=N/NC(N)=S)C(CN(C)C)C(C1=C(O)c2ccccc2OC1)c1ccccc1 (stereo unspecified)  growth inhibition           %              12
 5  BrC1(c2ccccc2)C[n+]2c(-c3ccccc3)cc(-c3ccccc3)cc2-c2ccccc21 (stereo unspecified)  growth inhibition           %              98
 6  COc1cc(-c2oc(C=Nc3ccccc3)c([N+](=O)[O-])c2-c2ccc(O)c(OC)c2)ccc1O  growth inhibition           %              91
 7  OC(CN1CCCCC1)c1ccc2c(ccc3ccccc32)c1 (stereo unspecified)  growth inhibition           %              69
 8  CCCCCCCCCCCC(=O)Oc1c(Cl)c(Cl)c(C#N)c(Cl)c1Cl  growth inhibition           %              -1
 9  COC(=O)NC1CCCCCCCCCCC1I (stereo unspecified)  growth inhibition           %              99
10  CCCCCCCCCCCCCCCCCC(=O)OCCN1C(=O)c2ccccc2C1=O  growth inhibition           %              -8
11              Nc1cc(=O)[nH]c(=S)[nH]1.[Pd]  growth inhibition           %              13
12  CCC[CH2][Sn]([CH2]CCC)([O]C(=O)c1cccc(F)c1F)[O]C(=O)c1cccc(F)c1F  growth inhibition           %              62
13  CCOC1(c2ccccc2)c2ccccc2S(=O)(=O)N1C (stereo unspecified)  growth inhibition           %              10
14         CCCCCCCCCCCC(=O)C(=O)c1ccc(O)cc1O  growth inhibition           %              90
15                       O=C1OCC/C1=C1/CCOC1  growth inhibition           %              97
16       Cc1cccc(/C=N/NC(=S)Nc2ccc(Cl)cc2)n1  growth inhibition           %              98
17     COc1ccc(N=N/N=c2\sc3cc(Cl)ccc3n2C)cc1  growth inhibition           %              62
18   CC(=O)Oc1ccc(Cl)cc1Cc1cc(Cl)ccc1OC(C)=O  growth inhibition           %              88
19                      C=C(Br)CN(C)CC(=C)Br  growth inhibition           %               5
20                    Oc1ccc(Cc2ccccc2)cc1Cl  growth inhibition           %              54
21             O=C(O)C(S(=O)(=O)O)S(=O)(=O)O  growth inhibition           %              99
22  Nc1c(-c2ccc(Cl)cc2)[n+]([O-])c2ccccc2[n+]1[O-]  growth inhibition           %              11
23     Cc1cccc(C)c1NC(=O)/C(Cl)=C(/Cl)C(=O)O  growth inhibition           %              99
24   CN(C)CC/C(=N\Nc1ccc(Cl)c(Cl)c1)c1ccccc1  growth inhibition           %             100
25         CC(=O)OCc1cc2ccccc2nc1C(Br)(Br)Br  growth inhibition           %              99
26  COC(=O)c1cn(NS(=O)(=O)c2ccc(OC)cc2)cc1C(=O)OC  growth inhibition           %               8
27  O=c1[nH]cc(F)c(=O)n1C1CCCCO1 (stereo unspecified)  growth inhibition           %              59
28  Nc1c2c(=O)[nH]c(=O)c2c(N)c2c(=O)c3ccccc3c(=O)c12  growth inhibition           %              78
29                   O=C(O)CCCc1ccc2ccccc2c1  growth inhibition           %               0
30     O=C(CC(=O)c1ccccc1)CC(=O)c1cccc(Cl)c1  growth inhibition           %              94
31  CC(C)CC(NC(=O)OCc1ccccc1)C(=O)NC(Cc1ccccc1)C(=O)CCl (stereo not drawn) (Cbz-Leu-Phe-CH2Cl; configuration not given here)  growth inhibition           %              77
32  COc1ccc(C2c3cc4c(cc3OC(N3CCCC3)C2C)OCO4)c(OC)c1 (stereo unspecified)  growth inhibition           %              68
33  CC(=O)C(C=O)C(C)=O.CC(=O)CC(C)=O.CC(=O)CC(C)=O.[Ru]  growth inhibition           %              33
34  CC1(C)CC(=O)C2=C(C1)Nc1ccccc1CC2c1c[nH]c2ccccc12 (stereo unspecified)  growth inhibition           %              68
35  CCN(CC)CCCC(C)Nc1cc(C)nc2c1ccc1c2ccc2c(NC(C)CCCN(CC)CC)cc(C)nc21 (stereo unspecified)  growth inhibition           %              96
